Value source: patent US20250250357A1

Below, each of the binders is paired with its reported OD450 nm value.
- Target or test system: T1, human MSLN-hFc protein (Acro, Cat. No. MSN-H5253) (human, UniProt Q13421 296-580)
- T1 construct: bought protein; also called human MSLN full-length protein; not shown: human Fc (hFc) of the bought protein
- T1 sequence (Q13421 other isoform, or with tags, fused parts or gaps limits assumed): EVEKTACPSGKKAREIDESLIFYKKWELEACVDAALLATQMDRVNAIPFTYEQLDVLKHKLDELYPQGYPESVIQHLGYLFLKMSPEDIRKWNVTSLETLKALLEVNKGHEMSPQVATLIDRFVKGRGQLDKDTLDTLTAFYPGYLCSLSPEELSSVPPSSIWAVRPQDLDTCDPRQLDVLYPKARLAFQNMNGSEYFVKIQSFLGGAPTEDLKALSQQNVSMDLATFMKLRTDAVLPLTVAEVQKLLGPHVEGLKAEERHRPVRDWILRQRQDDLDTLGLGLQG
- Procedure details: ELISA, coated human MSLN-hFc, antibody 10 nM
// return just the number, without any unit appended

Field: example entries. Status: answers known.
[[record]]
binder = "F2.23.12-H8 (scFv, not shown: small tags and cut ends, also called S009-F2.23.12 humanized VH2 + VL4) scFv: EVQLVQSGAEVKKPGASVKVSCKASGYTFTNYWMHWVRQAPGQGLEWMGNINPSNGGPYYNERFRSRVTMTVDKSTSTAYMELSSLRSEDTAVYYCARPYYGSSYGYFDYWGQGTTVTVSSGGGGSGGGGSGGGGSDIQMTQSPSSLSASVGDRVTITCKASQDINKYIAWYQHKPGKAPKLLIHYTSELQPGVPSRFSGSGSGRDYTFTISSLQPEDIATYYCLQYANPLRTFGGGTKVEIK"
observed = 0.62

[[record]]
binder = "F2.23.12-H5 (scFv, not shown: small tags and cut ends, also called S009-F2.23.12 humanized VH2 + VL1) scFv: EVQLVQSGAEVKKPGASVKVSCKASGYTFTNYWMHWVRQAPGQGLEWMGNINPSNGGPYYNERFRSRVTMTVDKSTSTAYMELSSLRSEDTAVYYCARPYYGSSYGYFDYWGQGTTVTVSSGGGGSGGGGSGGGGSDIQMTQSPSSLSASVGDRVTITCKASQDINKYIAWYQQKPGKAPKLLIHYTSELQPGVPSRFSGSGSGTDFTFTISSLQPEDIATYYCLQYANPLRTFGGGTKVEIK"
observed = 0.83


--- query ---
The binder identified as F2.23.12-H4 (scFv, not shown: small tags and cut ends, also called S009-F2.23.12 humanized VH1 + VL4) scFv: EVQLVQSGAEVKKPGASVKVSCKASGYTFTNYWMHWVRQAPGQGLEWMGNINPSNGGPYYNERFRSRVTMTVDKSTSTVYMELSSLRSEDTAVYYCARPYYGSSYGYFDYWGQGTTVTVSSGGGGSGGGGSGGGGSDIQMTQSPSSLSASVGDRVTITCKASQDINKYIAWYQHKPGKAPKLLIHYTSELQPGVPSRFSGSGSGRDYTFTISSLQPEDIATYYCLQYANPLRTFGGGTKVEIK registered its OD450 nm at 0.92
